The following are reported pIC50 results, target or system Acetylcholinesterase (Electrophorus electricus, UniProt O42275).
pIC50: −log10 of the molar value.

Below, each entry is followed by its recorded pIC50 result.
# smiles_data, value_measured
measured = [
    ("NCCCNCCCCNCC(=O)Nc1cccc2ccccc12", "< 4.30"),
    ("O=C(CNCCCO)Nc1c2ccccc2cc2ccccc12", "< 4.30"),
]

Shifting focus to the compound that follows.
Tell me the measured pIC50 of NCCCNCCCNCC(=O)Nc1c2ccccc2cc2ccccc12 , please. < 4.30

Value source: ChEMBL document CHEMBL3286236
